Biological target: EGFR wildtype (Homo sapiens)
Experiment: Biochemical EGFR kinase assay (Lance Ultra TR-FRET), wildtype
Conditions: IC50 WT (nM) 100 μM ATP, 100 μM ATP
# reported IC50; entries follow
metric name: IC50

CN(C)CCOc1cnc(-c2cnc(Nc3ccnc(-c4cnn(S(=O)(=O)C5CC5)c4)n3)cc2N[C@H]2CC[C@@H](CO)CC2)cn1 [Example 116] : 384 nM
C[C@]1(O)CC[C@@H](Nc2cc(Nc3ccnc(-c4cnn(S(=O)(=O)C5CC5)c4)n3)ncc2-c2ccc(C#N)cn2)CC1 [Example 7] : > 10000 nM
COc1ccc(-c2cnc(Nc3ccnc(-c4cnn(S(=O)(=O)C5CC5)c4)n3)cc2N[C@H]2CC[C@@](C)(O)CC2)nn1 [Example 53] : > 10000 nM
C[C@]1(O)CC[C@@H](Nc2cc(Nc3ccnc(-c4cnn(S(=O)(=O)C5CC5)c4)n3)ncc2-c2ccc(N3CC(F)(F)C3)nn2)CC1 [Example 66] : > 10000 nM
CN(C)c1cnc(-c2cnc(Nc3ccnc(-c4cnn(S(=O)(=O)C5CC5)c4)n3)cc2N[C@H]2CC[C@@](C)(O)CC2)nc1 [Example 39] : > 10000 nM
Cc1cnc(-c2cnc(Nc3ccnc(-c4cnn(S(=O)(=O)C5CC5)c4)n3)cc2N[C@H]2CC[C@@](C)(O)CC2)cn1 [Example 59] : > 10000 nM
C[C@]1(O)CC[C@@H](Nc2cc(Nc3ccnc(-c4cnn(S(=O)(=O)C5CC5)c4)n3)ncc2-c2cc(CN3CCOCC3)ccn2)CC1 [Example 61] : 3940 nM
O=S(=O)(C1CC1)n1cc(-c2nccc(Nc3cc(N[C@H]4CC[C@@H](CO)CC4)c(-c4cnc(N5CCC(F)(F)CC5)cn4)cn3)n2)cn1 [Example 70] : > 10000 nM
C[C@]1(O)CC[C@@H](Nc2cc(Nc3ccnc(-c4cnn(S(=O)(=O)C5CC5)c4)n3)ncc2-c2cccnn2)CC1 [Example 42] : 1360 nM
CN1CCN(c2ccnc(-c3cnc(Nc4ccnc(-c5cnn(S(=O)(=O)C6CC6)c5)n4)cc3N[C@H]3CC[C@@](C)(O)CC3)c2)CC1 [Example 58] : > 10000 nM
CC(C)(O)c1cnc(-c2cnc(Nc3ccnc(-c4cnn(S(=O)(=O)C5CC5)c4)n3)cc2N[C@H]2CC[C@@H](C(C)(C)O)CC2)cn1 [Example 120] : 968 nM
CC(C)(O)c1cc(-c2cnc(Nc3ccnc(-c4cnn(S(=O)(=O)C5CC5)c4)n3)cc2N[C@H]2CC[C@@](C)(O)CC2)ncc1F [Example 104] : > 10000 nM
CN1CCN(Cc2cnc(-c3cnc(Nc4ccnc(-c5cnn(S(=O)(=O)C6CC6)c5)n4)cc3N[C@H]3CC[C@@](C)(O)CC3)cn2)CC1 [Example 62] : 745 nM
C[C@]1(O)CC[C@@H](Nc2cc(Nc3ccnc(-c4cnn(S(=O)(=O)C5CC5)c4)n3)ncc2-c2ccc(N3CCC(O)CC3)cn2)CC1 [Example 49] : 294 nM
COC1CN(c2ccc(-c3cnc(Nc4ccnc(-c5cnn(S(=O)(=O)C6CC6)c5)n4)cc3N[C@H]3CC[C@@H](C(C)(C)O)CC3)nc2)C1 [Example 92] : 172 nM
CC(O)c1cccc(-c2cnc(Nc3ccnc(-c4cnn(S(=O)(=O)C5CC5)c4)n3)cc2NC2CCC(C)(O)CC2)n1 (stereo not shown) [Example 23] : > 10000 nM
C[C@]1(O)CC[C@@H](Nc2cc(Nc3ccnc(-c4cnn(S(=O)(=O)C5CC5)c4)n3)ncc2-c2cnc(CO)cn2)CC1 [Example 60] : > 10000 nM
CN1CCN(Cc2cccc(-c3cnc(Nc4ccnc(-c5cnn(S(=O)(=O)C6CC6)c5)n4)cc3N[C@H]3CC[C@@](C)(O)CC3)n2)CC1 [Example 28] : 1530 nM
C[C@]1(O)CC[C@@H](Nc2cc(Nc3ccnc(-c4cnn(S(=O)(=O)C5CC5)c4)n3)ncc2-c2cc(C(F)F)ccn2)CC1 [Example 76] : > 10000 nM
CN1CCN(Cc2ccc(-c3cnc(Nc4ccnc(-c5cnn(S(=O)(=O)C6CC6)c5)n4)cc3N3CCC(C)(CO)CC3)nc2)CC1 [Example 1] : > 10000 nM
Cc1ccc(-c2cnc(Nc3ccnc(-c4cnn(S(=O)(=O)C5CC5)c4)n3)cc2N[C@H]2CC[C@@](C)(O)CC2)nn1 [Example 52] : > 10000 nM
CC(C)(O)c1ccc(-c2cnc(Nc3ccnc(-c4cnn(S(=O)(=O)C5CC5)c4)n3)cc2N[C@H]2CC[C@@H](CO)CC2)nn1 [Example 87] : 992 nM
C[C@]1(O)CC[C@@H](Nc2cc(Nc3ccnc(-c4cnn(S(=O)(=O)C5CC5)c4)n3)ncc2-c2ccccn2)CC1 [Example 35] : 811 nM
CC(C)(O)[C@H]1CC[C@@H](Nc2cc(Nc3ccnc(-c4cnn(S(=O)(=O)C5CC5)c4)n3)ncc2-c2cc(C(F)F)ccn2)CC1 [Example 78] : > 10000 nM
C[C@]1(O)CC[C@@H](Nc2cc(Nc3ccnc(-c4cnn(S(=O)(=O)C5CC5)c4)n3)ncc2-c2cnc(N3CCOCC3)cn2)CC1 [Example 44] : > 10000 nM

###

Biological target: EGFR del19/T790M/C797S (Homo sapiens, UniProt P00533, C797S/DEL746-750/T790M)
Sequence (P00533 with tags, fused parts or gaps DEL746-750/T790M/C797S): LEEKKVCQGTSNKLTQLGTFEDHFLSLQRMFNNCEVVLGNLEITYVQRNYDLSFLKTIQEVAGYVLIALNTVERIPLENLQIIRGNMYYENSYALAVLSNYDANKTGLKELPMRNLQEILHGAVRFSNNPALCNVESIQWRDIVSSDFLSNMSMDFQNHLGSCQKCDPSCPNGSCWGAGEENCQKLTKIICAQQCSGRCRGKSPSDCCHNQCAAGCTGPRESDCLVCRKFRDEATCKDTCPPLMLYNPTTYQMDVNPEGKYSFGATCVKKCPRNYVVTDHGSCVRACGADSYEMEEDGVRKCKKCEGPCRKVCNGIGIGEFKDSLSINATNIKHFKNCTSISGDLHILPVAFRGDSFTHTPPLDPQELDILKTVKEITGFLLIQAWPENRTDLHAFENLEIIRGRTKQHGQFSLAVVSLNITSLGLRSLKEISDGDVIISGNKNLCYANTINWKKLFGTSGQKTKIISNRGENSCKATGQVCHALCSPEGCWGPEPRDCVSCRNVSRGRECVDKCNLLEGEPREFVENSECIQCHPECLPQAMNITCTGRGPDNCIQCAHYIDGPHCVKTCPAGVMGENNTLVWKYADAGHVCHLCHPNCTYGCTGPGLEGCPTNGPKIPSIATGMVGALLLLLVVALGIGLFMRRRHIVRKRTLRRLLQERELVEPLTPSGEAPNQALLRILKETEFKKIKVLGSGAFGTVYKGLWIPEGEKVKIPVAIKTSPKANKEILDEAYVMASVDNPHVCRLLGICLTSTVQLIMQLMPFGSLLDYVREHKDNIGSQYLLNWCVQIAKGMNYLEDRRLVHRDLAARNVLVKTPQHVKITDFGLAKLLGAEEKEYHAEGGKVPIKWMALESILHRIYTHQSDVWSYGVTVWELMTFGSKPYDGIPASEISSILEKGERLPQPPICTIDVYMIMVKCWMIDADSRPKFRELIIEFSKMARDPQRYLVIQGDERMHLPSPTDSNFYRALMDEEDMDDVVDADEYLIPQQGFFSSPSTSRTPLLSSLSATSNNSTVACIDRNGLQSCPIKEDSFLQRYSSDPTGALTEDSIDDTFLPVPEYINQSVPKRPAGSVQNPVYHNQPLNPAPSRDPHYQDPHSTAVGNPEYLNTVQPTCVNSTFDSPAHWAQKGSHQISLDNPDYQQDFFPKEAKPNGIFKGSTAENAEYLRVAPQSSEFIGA
Assay: Biochemical EGFR kinase assay (Lance Ultra TR-FRET), triple mutant del19/T790M/C797S
Conditions: IC50 del19/T790M/C797S, 100 μM ATP
metric name: IC50

O=S(=O)(C1CC1)n1cc(-c2nccc(Nc3cc(N[C@H]4CC[C@@H](CO)CC4)c(-c4cccc(F)n4)cn3)n2)cn1 [Example 272] : 0.5 nM
CC1CCN(S(=O)(=O)c2ccc(-c3cnc(Nc4ccnc(-c5cnn(S(=O)(=O)C6CC6)c5)n4)cc3N[C@H]3CC[C@@H](C(C)(C)O)CC3)nc2)CC1 [Example 187] : 239 nM
C[C@]1(O)CC[C@@H](Nc2cc(Nc3ccnc(-c4cnn(S(=O)(=O)C5CC5)c4)n3)ncc2-c2cccc(NCCO)n2)CC1 [Example 285] : 0.2 nM
C[C@]1(O)CC[C@@H](Nc2cc(Nc3ccnc(-c4cnn(S(=O)(=O)C5CC5)c4)n3)ncc2-c2cc(OCCN3CCOCC3)ccn2)CC1 [Example 211] : 0.5 nM
CC(C)(O)[C@H]1CC[C@@H](Nc2cc(Nc3ccnc(-c4cnn(S(=O)(=O)C5CC5)c4)n3)ncc2-c2cccc(F)n2)CC1 [Example 163] : 2.6 nM
Cc1ccc(-c2cnc(Nc3ccnc(-c4cnn(S(=O)(=O)C5CC5)c4)n3)cc2N[C@H]2CC[C@@H](C(C)(C)O)CC2)nc1F [Example 180] : 8.5 nM

###

Biological target: EGFR del19/T790M/C797S (Homo sapiens, UniProt P00533, C797S/DEL746-750/T790M)
Assay: Biochemical EGFR kinase assay (Lance Ultra TR-FRET), triple mutant del19/T790M/C797S
Details: Km ATP; read-out: IC50 del19/T790M/C797S (nM) Km ATP
metric name: log10(IC50) (log10 of the value in nM)

CN1CCC(Oc2ccc(-c3cnc(Nc4ccnc(-c5cnc6c(c5)CCCO6)n4)cc3N[C@H]3CC[C@@](C)(O)CC3)nc2)CC1 : -2.00
C[C@]1(O)CC[C@@H](Nc2cc(Nc3ccnc(-c4cnn(S(=O)(=O)C5CC5)c4)n3)ncc2-c2ccc(N3CCC(F)(F)CC3)nn2)CC1 : -0.05
C[C@]1(O)CC[C@@H](Nc2cc(Nc3ccnc(-c4cnn(S(=O)(=O)C5CC5)c4)n3)ncc2-c2ccc(N3CCCCC3)cn2)CC1 : 1.10
CC(C)(O)c1cc(-c2cnc(Nc3ccnc(-c4cnn(S(=O)(=O)C5CC5)c4)n3)cc2N[C@H]2CC[C@@H](C(C)(C)O)CC2)ncc1F : 0.79
C[C@]1(O)CC[C@@H](Nc2cc(Nc3ccnc(-c4cnn(S(=O)(=O)C5CC5)c4)n3)ncc2-c2ccc(N3CC4(COC4)C3)nn2)CC1 : -0.52
CC(C)(O)c1cnc(-c2cnc(Nc3ccnc(-c4cnn(S(=O)(=O)C5CC5)c4)n3)cc2N[C@H]2CC[C@@H](C(C)(C)O)CC2)cn1 : -0.70

###

Molecular target: EGFR wildtype (Homo sapiens, UniProt P00533)
Sequence (P00533 25-1210): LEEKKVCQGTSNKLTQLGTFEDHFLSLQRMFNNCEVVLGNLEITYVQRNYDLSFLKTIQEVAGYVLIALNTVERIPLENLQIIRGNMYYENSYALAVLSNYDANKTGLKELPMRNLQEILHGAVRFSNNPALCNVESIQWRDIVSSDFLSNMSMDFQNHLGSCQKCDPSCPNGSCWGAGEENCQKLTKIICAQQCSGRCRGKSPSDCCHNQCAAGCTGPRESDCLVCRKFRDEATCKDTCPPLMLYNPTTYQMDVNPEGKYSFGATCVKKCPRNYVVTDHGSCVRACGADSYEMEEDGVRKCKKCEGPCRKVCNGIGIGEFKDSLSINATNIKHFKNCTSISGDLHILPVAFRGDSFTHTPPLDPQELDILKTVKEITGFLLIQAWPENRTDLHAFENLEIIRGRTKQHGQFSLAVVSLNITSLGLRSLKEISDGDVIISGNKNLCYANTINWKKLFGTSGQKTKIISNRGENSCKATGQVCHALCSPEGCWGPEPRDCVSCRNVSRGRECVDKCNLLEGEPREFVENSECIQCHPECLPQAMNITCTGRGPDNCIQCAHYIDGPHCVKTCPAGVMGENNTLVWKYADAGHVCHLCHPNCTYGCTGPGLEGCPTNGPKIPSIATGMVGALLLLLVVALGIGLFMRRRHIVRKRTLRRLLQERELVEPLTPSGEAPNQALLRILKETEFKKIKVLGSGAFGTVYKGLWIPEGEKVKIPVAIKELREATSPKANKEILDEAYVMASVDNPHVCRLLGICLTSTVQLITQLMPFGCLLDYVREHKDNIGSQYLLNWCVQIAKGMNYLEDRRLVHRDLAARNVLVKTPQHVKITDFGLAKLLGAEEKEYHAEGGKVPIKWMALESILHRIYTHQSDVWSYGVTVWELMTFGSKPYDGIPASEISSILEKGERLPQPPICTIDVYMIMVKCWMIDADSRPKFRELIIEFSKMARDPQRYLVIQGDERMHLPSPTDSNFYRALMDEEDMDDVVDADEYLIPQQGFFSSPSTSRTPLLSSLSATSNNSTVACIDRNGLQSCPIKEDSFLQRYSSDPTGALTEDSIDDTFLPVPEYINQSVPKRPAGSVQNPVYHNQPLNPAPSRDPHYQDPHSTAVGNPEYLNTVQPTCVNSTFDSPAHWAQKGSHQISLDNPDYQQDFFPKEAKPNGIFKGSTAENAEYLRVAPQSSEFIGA
Assay: Biochemical EGFR kinase assay (Lance Ultra TR-FRET), wildtype
Conditions: IC50 WT, 100 μM ATP
pIC50: −log10 of the molar value.
Mark condition not met for pIC50 values under 6, and condition met for everything at or above.

CC(C)(O)[C@H]1CC[C@@H](Nc2cc(Nc3ccnc(-c4cnn(S(=O)(=O)C5CC5)c4)n3)ncc2-c2ccc(S(C)(=O)=O)cn2)CC1 : condition not met
CC(C)(O)[C@H]1CC[C@@H](Nc2nccc(-c3cnc(Nc4ccnc(-c5cnn(S(=O)(=O)C6CC6)c5)n4)cc3N[C@H]3CC[C@@H](C(C)(C)O)CC3)n2)CC1 : condition not met
CN1CCN(C(=O)c2ccc(-c3cnc(Nc4ccnc(-c5cnn(S(=O)(=O)C6CC6)c5)n4)cc3N[C@H]3CC[C@@H](C(C)(C)O)CC3)nc2)CC1 : condition met
CN(C)C[C@H]1CC[C@@H](Nc2cc(Nc3ccnc(-c4cnn(S(=O)(=O)C5CC5)c4)n3)ncc2-c2cc(NC3CC(F)(F)C3)ccn2)CC1 : condition met
C[C@]1(O)CC[C@@H](Nc2cc(Nc3ccnc(-c4cnn(S(=O)(=O)C5CC5)c4)n3)ncc2-c2cc(NC3CC(F)(F)C3)ccn2)CC1 : condition not met
CN(C)S(=O)(=O)c1ccc(-c2cnc(Nc3ccnc(-c4cnn(S(=O)(=O)C5CC5)c4)n3)cc2N[C@H]2CC[C@@H](C(C)(C)O)CC2)nc1 : condition not met
CN(C)c1ccnc(-c2cnc(Nc3ccnc(-c4cnn(S(=O)(=O)C5CC5)c4)n3)cc2N[C@H]2CC[C@@](C)(O)CC2)c1 : condition not met
O=S(=O)(C1CC1)n1cc(-c2nccc(Nc3cc(N[C@H]4CC[C@@H](CO)CC4)c(-c4cc(OCCN5CCOCC5)ccn4)cn3)n2)cn1 : condition not met
CC(C)(O)C1CCC(Nc2cc(Nc3ccnc(-c4cnn(S(=O)(=O)C5CC5)c4)n3)ncc2-c2ccc(C(C)(O)C(F)(F)F)cn2)CC1 (stereo not drawn) : condition not met
C[C@]1(O)CC[C@@H](Nc2cc(Nc3ccnc(-c4cnn(S(=O)(=O)C5CC5)c4)n3)ncc2-c2cccc(CC(F)(F)F)n2)CC1 : condition not met
CN(C)C[C@H]1CC[C@@H](Nc2cc(Nc3ccnc(-c4cnn(S(=O)(=O)C5CC5)c4)n3)ncc2-c2ccc(S(C)(=O)=O)cn2)CC1 : condition met
CC1(O)CCC(Nc2cc(Nc3ccnc(-c4cnn(S(=O)(=O)C5CC5)c4)n3)ncc2-c2cc(CN3CC(O)C3)ccn2)CC1 (stereo not drawn) : condition not met
CC(C)(O)c1ccc(-c2cnc(Nc3ccnc(-c4cnn(S(=O)(=O)C5CC5)c4)n3)cc2N[C@H]2CC[C@@H](CO)CC2)nc1 : condition met
C[C@]1(O)CC[C@@H](Nc2cc(Nc3ccnc(-c4cnn(S(=O)(=O)C5CC5)c4)n3)ncc2-c2ccc(OCCN3CCC3)cn2)CC1 : condition met
O=S(=O)(C1CC1)n1cc(-c2nccc(Nc3cc(N[C@H]4CCC[C@H](CO)C4)c(-c4ccc(C(O)C(F)(F)F)cn4)cn3)n2)cn1 (stereo partly drawn) : condition not met
C[C@]1(O)CC[C@@H](Nc2cc(Nc3ccnc(-c4cnn(S(=O)(=O)C5CC5)c4)n3)ncc2-c2cc(NCCN3CC(F)C3)ccn2)CC1 : condition not met
Cc1ccc(-c2cnc(Nc3ccnc(-c4cnn(S(=O)(=O)C5CC5)c4)n3)cc2N[C@H]2CC[C@@](C)(O)CC2)nc1F : condition not met
C[C@]1(O)CC[C@@H](Nc2cc(Nc3ccnc(-c4cnn(S(=O)(=O)C5CC5)c4)n3)ncc2-c2ccc(OC(F)(F)F)cn2)CC1 : condition not met
O=S(=O)(C1CC1)n1cc(-c2nccc(Nc3cc(N[C@H]4CC[C@@H](CO)CC4)c(-c4ccnc(N[C@H]5CC[C@@H](CO)CC5)n4)cn3)n2)cn1 : condition not met
C[C@]1(O)CC[C@@H](Nc2cc(Nc3ccnc(-c4cnn(S(=O)(=O)C5CC5)c4)n3)ncc2-c2cc(NCCN3CCOCC3)ccn2)CC1 : condition not met
CN(C)CCOc1ccnc(-c2cnc(Nc3ccnc(-c4cnn(S(=O)(=O)C5CC5)c4)n3)cc2N[C@H]2CC[C@@](C)(O)CC2)c1 : condition not met
